system: K562 CRISPRi cells; assay: Constant region variant library pooled growth screen, K562; type: cell-based, human; conditions: sgRNA constant region variants; activity relative to the original, un-modified constant region cr995
Recorded Mean relative activity, one value per entry.
readout_name: Mean relative activity

[[record]]
molecule = "cr533 (nucleic acid, listed as DNA, chemistry not fully specified) guide: GTTTAAGAGCTAAGCTGGAAACAGCATAGCAAGTTTAAATAAGGCTAGTCCGTTATCAGCTTGAAAAAGCGGCGGCGAGTCGCCGCT"
recorded_number = 0.5558

[[record]]
molecule = "cr501 (nucleic acid, listed as DNA, chemistry not fully specified) guide: GTTTAAGAGCTAAGCTGGAAACAGCATAGCAAGTTTAAATAAGGCTAGTCCGTTATCAACTTGAGAAAGTGTCACCGAGTCGGTGAT"
recorded_number = 1.052

